- procedure_text: in vivo
- Design: species or system mice
- conditions_used: male, NODSCID 1L2RγKO, mouse, iv, total radioactivity, Liver uptake
compounds and their reported tissue uptake at 72 h
All answers are understood in %ID/g, so give the number only.

Worked cases, tissue uptake at 72 h given:
compound | tissue uptake at 72 h [%ID/g]
COc1ccc(CCCC(=O)NCC(=O)N[C@@H](CCCCNC(=O)CN2CCN(CC(=O)O)CCN(CC(=O)O)CCN(CC(=O)O)CC2)C(=O)NC[C@H]2CC[C@H](C(=O)N[C@@H](Cc3c4ccccc4cc4ccccc34)C(=O)NCCCC[C@H](NC(=O)N[C@@H](COCC(=O)O)C(=O)O)C(=O)O)CC2)cc1 [177Lu-HTK04028, metal not drawn] | 0.22
O=C(O)CCC[C@H](NC(=O)N[C@@H](CCCCNC(=O)[C@H](Cc1c2ccccc2cc2ccccc12)NC(=O)[C@H]1CC[C@H](CNC(=O)[C@H](CCCCNC(=O)CN2CCN(CC(=O)O)CCN(CC(=O)O)CCN(CC(=O)O)CC2)NC(=O)CNC(=O)CCCc2ccc(Cl)cc2)CC1)C(=O)O)C(=O)O [177Lu-HTK03153, metal not drawn] | 0.73

// below: tissue uptake at 72 h requested for another compound
query: // returns reported tissue uptake at 72 h for input COc1ccc(CCCC(=O)NCC(=O)N[C@@H](CCCCNC(=O)CN2CCN(CC(=O)O)CCN(CC(=O)O)CCN(CC(=O)O)CC2)C(=O)NC[C@H]2CC[C@H](C(=O)N[C@@H](Cc3c4ccccc4cc4ccccc34)C(=O)NCCCC[C@H](NC(=O)N[C@@H](CCCC(=O)O)C(=O)O)C(=O)O)CC2)cc1 [177Lu-HTK03170, metal not drawn]
result: 0.36

* * *

- Tested on: PSMA-expressing LNCaP cancer xenografts
- conditions_used: mouse, in vivo
Readings of Tumor: Salivary ratio for the listed compounds
Answer with a bare number; do not write a unit.

Consider the worked cases shown below.
compound | reading
O=C(O)CCC[C@H](NC(=O)N[C@@H](CCCCNC(=O)[C@H](Cc1c2ccccc2cc2ccccc12)NC(=O)Cc1ccc(CNC(=O)CN2CCN(CC(=O)O)CCN(CC(=O)O)CCN(CC(=O)O)CC2)cc1)C(=O)O)C(=O)O [68Ga-HTK04036, metal not drawn] | 75.1
O=C(O)CCC[C@H](NC(=O)N[C@@H](CCCCNC(=O)[C@H](Cc1c2ccccc2cc2ccccc12)NC(=O)c1ccc(NC(=O)CN2CCN(CC(=O)O)CCN(CC(=O)O)CCN(CC(=O)O)CC2)cc1)C(=O)O)C(=O)O [68Ga-HTK04041, metal not drawn] | 48.2
O=C(O)CSC[C@H](NC(=O)N[C@@H](CCCCNC(=O)[C@H](Cc1c2ccccc2cc2ccccc12)NC(=O)[C@H]1CC[C@H](CNC(=O)CN2CCN(CC(=O)O)CCN(CC(=O)O)CCN(CC(=O)O)CC2)CC1)C(=O)O)C(=O)O [68Ga-HTK03177, metal not drawn] | 112

Please find the next compound below.
query: Lab note: need Tumor: Salivary ratio for O=C(O)CCCCC(NC(=O)N[C@@H](CCCCNC(=O)[C@H](Cc1c2ccccc2cc2ccccc12)NC(=O)[C@H]1CC[C@H](CNC(=O)CN2CCN(CC(=O)O)CCN(CC(=O)O)CCN(CC(=O)O)CC2)CC1)C(=O)O)C(=O)O (single isomer, unassigned) [68Ga-HTK03189B, metal not drawn] on PSMA-expressing LNCaP cancer xenografts, anyone have it?
result: 3.08

The measurements presented in this section are drawn from patent US11504441B2.
